IC50 values recorded for hBChE
# unit: µM | format: bare number

Prompt: I have this compound here, O=C(NCCN1CCOCC1)c1cc2nn(CC3CCCCC3)cc2cc1Oc1ccc(F)cc1F [Compound 103] , and I need its recorded IC50.
Completion: 10.8

Prompt: I have this compound here, O=C(NCCn1cccc1)c1cc2c(cnn2CC2CCCCC2)cc1Oc1ccc(F)cc1F [Compound 81] , and I need its recorded IC50.
Completion: 80

Prompt: I have this compound here, CC(C)Cn1ncc2cc(Sc3ccc(F)cc3F)c(C(=O)NCCN(C)C)cc21 [Compound 92] , and I need its recorded IC50.
Completion: 2.25

Prompt: I have this compound here, CN(C)CCNC(=O)c1cc2c(cnn2C2C=CCCC2)cc1Oc1ccc(F)cc1F (stereo not shown) [Compound 83] , and I need its recorded IC50.
Completion: 8.35

Prompt: I have this compound here, COC1CCCN(CCNC(=O)c2cc3c(cnn3CC3CCCCC3)cc2Oc2ccc(F)cc2F)C1 (stereo not shown) , and I need its recorded IC50.
Completion: 5.22

Prompt: I have this compound here, COCC1CCCN(CCNC(=O)c2cc3c(cnn3CC3CCCCC3)cc2Oc2ccc(F)cc2F)C1 (racemic) [Compound 79] , and I need its recorded IC50.
Completion: 3.6

Prompt: I have this compound here, COC1CCCN(CCNC(=O)c2cc3nn(CC4CCCCC4)cc3cc2Oc2ccc(F)cc2F)C1 (stereo not shown) [Compound 101] , and I need its recorded IC50.
Completion: 0.184

Prompt: I have this compound here, O=C(NCCn1ccnc1)c1cc2c(cnn2CC2CCCCC2)cc1Oc1ccc(F)cc1F [Compound 82] , and I need its recorded IC50.
Completion: 18.7

Prompt: I have this compound here, CC(C)Cn1ncc2cc(Oc3ccc(F)cc3)c(C(=O)NCCN(C)C)cc21 [Compound 88] , and I need its recorded IC50.
Completion: 6.38

Prompt: I have this compound here, O=C(NCCN1CCOCC1)c1cc2c(cnn2CC2CCCCC2)cc1Oc1ccc(F)cc1F [Compound 80] , and I need its recorded IC50.
Completion: 5.22
